target: T1, hCMV gH + gL + UL128 + UL130 + UL131A (5-member complex; HEK293T co-transfectant) (hCMV, UniProt P12824 24-743; P16832 31-278; P16837 1-171; P16772 1-214); assay: cell competition; competitor 8I21-biotin
T1 construct: whole, on cells; in the functional rows it stands for the complex on virions or transduced cells of the strain or isolate named in the readout; also called gH/gL/UL128-131A complex; pentameric complex
assay_endpoint: Inhibition of binding (%)
Give the value in % but do not write % after it.

{"columns": ["binder", "assay_endpoint", "scale_unit", "reported_value"],
 "data": [
  ["3G16 (antibody, V domains shown, human IgG; also called 3G16-biotin) VH: QSALTQPASVSGSPGESITISCTGTISDVGAYNSVSWYQQHSGTAPELIIYDVTNRPAGVSSRFSGSKSGNTASLTISWLQSEDEAEYYCSSYTTSDTYVFGSGTQVTVL V domain: RAQLVQSAAEMKNPGASVKVSCEASGYTFTGYYVHWMRQAPGQGLEWMGWINPMTGATKSPQKFQGRVTMTRDTSTTATHIELTRLRSDDSAVFFCARGGPTSTRITGKRHFDLWGRGTLITVAS", "Inhibition of binding (%)", "%", 0]
]}

Enquiry: Item under review: 7I13 (antibody, V domains shown, human IgG; also called 7113) VH: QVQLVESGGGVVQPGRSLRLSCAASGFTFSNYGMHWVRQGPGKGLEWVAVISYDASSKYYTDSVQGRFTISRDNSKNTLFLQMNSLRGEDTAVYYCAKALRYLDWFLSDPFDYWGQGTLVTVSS VL: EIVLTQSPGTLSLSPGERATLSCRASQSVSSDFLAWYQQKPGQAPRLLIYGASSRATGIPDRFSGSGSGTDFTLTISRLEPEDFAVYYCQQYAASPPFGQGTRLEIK . Reported Inhibition of binding (%)?
Return: 0
